Entries and their measured pKi follow.
Target: full-length hepatitis C viral protein NS3•4A (Hepatitis C virus genotype 1a, UniProt P27958)
Construct: hexa-histidine (N); made in house; host or cells: Sf9 insect cells (baculovirus, pVL1392)
Assay: biochemical
Set-up: species or system HCV sub-type strain 1a
Details: Enzyme Assay 2, HCV NS3 Peptide Cleavage Assay, apparent Ki
pKi: −log10 of the molar value.
Observable: pKi

- CNC(=O)C(=O)[C@H](CC1CC1)NC(=O)[C@@H]1C[C@]2(CC(c3cc(C)c(OC)c(C)c3)=NO2)CN1C(=O)[C@@H](NC(=O)[C@@H]1CC1c1ccccc1)C(C)(C)C (stereo partly drawn): > 7.00
- CCC[C@H](NC(=O)[C@@H]1C[C@]2(CC(c3cc(C)c(OCC)c(C)c3)=NO2)CN1C(=O)[C@@H](NC(=O)[C@@H]1C[C@H]1c1ccccc1)C(C)(C)C)C(=O)C(=O)NC: > 7.00
- CCC[C@H](NC(=O)[C@@H]1C[C@]2(CC(c3cc(C)c(OC)cc3OC)=NO2)CN1C(=O)[C@@H](NC(=O)[C@@H]1C[C@H]1c1ccccc1)C(C)(C)C)C(=O)C(=O)NC1CC1: > 7.00

====

Entries and their measured pKi follow.
Biological target: full-length hepatitis C viral protein NS3•4A (Hepatitis C virus genotype 1a)
Construct: hexa-histidine (N); made in house; host or cells: Sf9 insect cells (baculovirus, pVL1392)
Assay: biochemical
Parameters: species or system HCV sub-type strain 1a
Conditions: Enzyme Assay 2, HCV NS3 Peptide Cleavage Assay, apparent Ki
pKi: −log10 of the molar value.
Observable: pKi

• [2H][C@@](CCC)(NC(=O)[C@@H]1C[C@]2(CC(c3cc(C)c(OC)c(C)c3)=NO2)CN1C(=O)[C@@H](NC(=O)CC1CCCCC1)C(C)(C)C)C(=O)C(=O)NC1CC1 [Compound 967] = > 7.00
• CC(C)(C)[C@H](NC(=O)[C@@H]1C[C@H]1c1ccccc1)C(=O)N1C[C@@]2(CC(c3cccc4cccnc34)=NO2)C[C@H]1C(=O)N[C@@H](CC1CC1)C(=O)C(N)=O [Compound 806] = > 7.00
• CCC[C@H](NC(=O)[C@@H]1C[C@]2(CC(c3cc(C)c(OCC)c(C)c3)=NO2)CN1C(=O)[C@@H](NC(=O)C1C[C@H]1C(C)C)C(C)(C)C)C(=O)C(=O)NC (stereo partly shown) [Compound 992] = > 7.00
• CCC[C@H](NC(=O)[C@@H]1C[C@]2(CC(c3cccc(Cl)c3)=NO2)CN1C(=O)[C@@H](NC(=O)OCC1(C)COC1)C(C)(C)C)C(=O)C(=O)NC1CC1 [Compound 957] = 6.30 to 7.00
• CCC[C@H](NC(=O)[C@@H]1C[C@]2(CC(c3cccc(Cl)c3)=NO2)CN1C(=O)[C@@H](NC(=O)C1(c2ccccc2)CC1)C(C)(C)C)C(=O)C(=O)NC1CC1 [Compound 961] = < 6.30
• CCC[C@H](NC(=O)[C@@H]1C[C@]2(CC(c3cccc(Cl)c3)=NO2)CN1C(=O)[C@@H](NC(=O)[C@H]1C[C@@H]1C1CCCCC1)C(C)(C)C)C(=O)C(=O)NC1CC1 [Compound 920] = 6.30 to 7.00
• CNC(=O)C(=O)[C@H](CC1CC1)NC(=O)[C@@H]1C[C@]2(CC(c3cccc(Cl)c3)=NO2)CN1C(=O)[C@@H](NC(=O)[C@H]1CC1c1ccccc1)C(C)(C)OC (stereo partly shown) [Compound 959] = > 7.00
• CCC[C@H](NC(=O)[C@@H]1C[C@]2(CC(N3Cc4ccccc4C3)=NO2)CN1C(=O)[C@@H](NC(=O)OC1CCCC1)C(C)(C)C)C(=O)C(=O)NC1CC1 [Compound 964] = 6.30 to 7.00
• CCC[C@H](NC(=O)[C@@H]1C[C@]2(CC(c3cc(C)c(OCC)c(C)c3)=NO2)CN1C(=O)[C@@H](NC(=O)[C@@H]1C[C@H]1c1ccccc1OC)C(C)(C)C)C(=O)C(=O)NC [Compound 991] = > 7.00
• COc1c(C)cc(C2=NO[C@]3(C2)C[C@@H](C(=O)N[C@@H](CC2CC2)C(=O)C(N)=O)N(C(=O)[C@@H](NC(=O)[C@@H]2C[C@H]2c2ccccc2)C(C)(C)C)C3)cc1Cl [Compound 811] = > 7.00
